- target.of.assay: isolated recombinant JAK1 kinase domain (Homo sapiens (Human))
- Sequence (P23458 875-1153): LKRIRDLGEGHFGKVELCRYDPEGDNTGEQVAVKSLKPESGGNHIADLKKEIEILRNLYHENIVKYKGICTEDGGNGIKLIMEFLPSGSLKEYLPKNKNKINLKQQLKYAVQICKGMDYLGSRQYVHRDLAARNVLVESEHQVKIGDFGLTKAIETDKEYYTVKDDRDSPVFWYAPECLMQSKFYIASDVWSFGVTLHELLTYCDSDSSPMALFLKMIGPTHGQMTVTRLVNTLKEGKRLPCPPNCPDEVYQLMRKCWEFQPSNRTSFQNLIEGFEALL
- method.description: JAK1 enzyme assay (Caliper LabChip, peptide phosphorylation)
- Format: biochemical
- protocol.conditions: isolated recombinant JAK1 kinase domain, 25 μM ATP
Ki values for the compounds below.
Number only, in nM; omit the unit.

Query: Name the recorded Ki for "CN1C[C@H]2CCN(C(=O)Cn3cc(NC(=O)c4cnn5cccnc45)c(-c4cc(Cl)ccc4OC(F)F)n3)C[C@H]2C1" .
Result: 0.66

---

- target.of.assay: isolated recombinant JAK1 kinase domain (Homo sapiens (Human))
- method.description: JAK1 enzyme assay (Caliper LabChip, peptide phosphorylation)
- Format: biochemical
- protocol.conditions: isolated recombinant JAK1 kinase domain, 25 μM ATP
measurement.name: pKi
Field pKi (float): negative decimal logarithm of the concentration in molar.

CN1CCC2CN(C(=O)Cn3cc(NC(=O)c4cnn5cccnc45)c(-c4cc(Cl)ccc4OC(F)F)n3)CCC21 (stereo not shown) [Example 29] : 9.00

Continue with the compound presented below.
Query: Field request: pKi | item: Nc1nn2cccnc2c1C(=O)Nc1cn([C@H]2C[C@@H](N)C2)nc1-c1cc(Cl)ccc1OC(F)F [Example 297]
Result: 9.49
